System: Escherichia coli TOP10
procedureDetails: shrunken log2 fold change of peptide-encoding DNA abundance (4.5 h post-induction vs induction); higher = less antimicrobial activity (less host growth inhibition)
conditionContext: time post-induction: 4.5 h; library: site-saturation at positions 5, 18, 19, 20
measurementType: shrunken log2 fold change
One number for each entry.

Consider the following illustrative entries.
residues	shrunken log2 fold change
RRIRPRPPRLPRPRPRPDGHPRP	0.0433
RRIRNRPPRLPRPRPRPANRPRP	-0.029
RRIRKRPPRLPRPRPRPREIPRP	0.736
RRIRARPPRLPRPRPRPKKTPRP	-0.0919

Would you mind listing shrunken log2 fold change for each of the following sequences?
1. RRIRPRPPRLPRPRPRPEIFPRP
2. RRIRWRPPRLPRPRPRPVTCPRP
3. RRIRRRPPRLPRPRPRPTQYPRP
4. RRIRYRPPRLPRPRPRPFFMPRP
5. RRIRDRPPRLPRPRPRPLESPRP
6. RRIRIRPPRLPRPRPRPNVQPRP
7. RRIRLRPPRLPRPRPRPMWFPRP
8. RRIRFRPPRLPRPRPRPYWRPRP

Return:
0.137
-0.00133
0.571
-0.71
0.258
-0.284
0.106
-0.0769

Batch lookup, shrunken log2 fold change per entry.
1. RRIRPRPPRLPRPRPRPAQEPRP
2. RRIRTRPPRLPRPRPRPESVPRP

Return:
[0.171, -0.0229]

Could I get shrunken log2 fold change for every one of these entries?
1. RRIRPRPPRLPRPRPRPMACPRP
2. RRIRMRPPRLPRPRPRPMTSPRP
3. RRIRSRPPRLPRPRPRPLDRPRP
4. RRIRKRPPRLPRPRPRPPDDPRP

Return:
1: -0.161; 2: 0.157; 3: 0.218; 4: 1.99

Hi there! I need shrunken log2 fold change for each item below, if you can.
1. RRIRQRPPRLPRPRPRPGRAPRP
2. RRIRSRPPRLPRPRPRPNDMPRP
3. RRIRERPPRLPRPRPRPRFEPRP

Return:
0.474
-0.193
0.168

====

Test system: Escherichia coli TOP10
procedureDetails: shrunken log2 fold change of peptide-encoding DNA abundance (4.5 h post-induction vs induction); higher = less antimicrobial activity (less host growth inhibition)
conditionContext: time post-induction: 4.5 h; library: site-saturation at positions 5, 18, 19, 20
measurementType: shrunken log2 fold change
Numbers only.

residues	shrunken log2 fold change
RRIRMRPPRLPRPRPRPIYQPRP	-0.236

Please give shrunken log2 fold change for each item listed below.
1. RRIRMRPPRLPRPRPRPWFDPRP
2. RRIRFRPPRLPRPRPRPHEYPRP
3. RRIRVRPPRLPRPRPRPVRIPRP
4. RRIRPRPPRLPRPRPRPNWEPRP
5. RRIRERPPRLPRPRPRPTCEPRP
6. RRIRARPPRLPRPRPRPFWTPRP
7. RRIRTRPPRLPRPRPRPGFLPRP

Return:
1: 0.00362; 2: -0.264; 3: 0.337; 4: 0.0541; 5: -0.122; 6: 0.29; 7: 0.122

====

Test system: Escherichia coli TOP10
procedureDetails: shrunken log2 fold change of peptide-encoding DNA abundance (4.5 h post-induction vs induction); higher = less antimicrobial activity (less host growth inhibition)
conditionContext: time post-induction: 4.5 h; library: site-saturation at positions 5, 18, 19, 20
Kindly return condition met if reported shrunken log2 fold change is no lower than -0.1; return condition not met if it is lower.

These recorded examples may help you get a feel for the data.
residues	system	discreteLabel
RRIRKRPPRLPRPRPRPWLAPRP	Escherichia coli TOP10	condition met
RRIRTRPPRLPRPRPRPMHVPRP	Escherichia coli TOP10	condition met

Please look at the following sequence next.
Enquiry: Hi team, for RRIRKRPPRLPRPRPRPRLEPRP , is the recorded shrunken log2 fold change at or above -0.1?
Return: condition met

====

System: Escherichia coli TOP10
procedureDetails: shrunken log2 fold change of peptide-encoding DNA abundance (4.5 h post-induction vs induction); higher = less antimicrobial activity (less host growth inhibition)
conditionContext: time post-induction: 4.5 h; library: site-saturation at positions 5, 18, 19, 20
measurementType: shrunken log2 fold change
Numbers only.

Look over these answered cases.
residues	system	assayResult
RRIRYRPPRLPRPRPRPSLMPRP	Escherichia coli TOP10	-0.556
RRIRLRPPRLPRPRPRPSQTPRP	Escherichia coli TOP10	-0.217
RRIRGRPPRLPRPRPRPAWRPRP	Escherichia coli TOP10	0.934
RRIRHRPPRLPRPRPRPLTCPRP	Escherichia coli TOP10	-0.0216
RRIRRRPPRLPRPRPRPQHAPRP	Escherichia coli TOP10	0.314
RRIRYRPPRLPRPRPRPEMWPRP	Escherichia coli TOP10	0.0929

Your task in this section: give shrunken log2 fold change for each listed record.
1. RRIRTRPPRLPRPRPRPPYNPRP
2. RRIRSRPPRLPRPRPRPMCLPRP
3. RRIRKRPPRLPRPRPRPVTIPRP
4. RRIRTRPPRLPRPRPRPVFDPRP
5. RRIRGRPPRLPRPRPRPGKGPRP

Return:
-0.252
0.038
0.0361
-0.226
0.394

====

What shrunken log2 fold change was measured for each of the following?
Test system: Escherichia coli TOP10
procedureDetails: shrunken log2 fold change of peptide-encoding DNA abundance (4.5 h post-induction vs induction); higher = less antimicrobial activity (less host growth inhibition)
conditionContext: time post-induction: 4.5 h; library: site-saturation at positions 5, 18, 19, 20

residues	shrunken log2 fold change
RRIRRRPPRLPRPRPRPPSEPRP	0.974
RRIRNRPPRLPRPRPRPHGCPRP	-0.0193

Hi! Can you tell me shrunken log2 fold change for each of these sequences?
1. RRIRWRPPRLPRPRPRPMDAPRP
2. RRIRARPPRLPRPRPRPRFSPRP
3. RRIRVRPPRLPRPRPRPRSRPRP
4. RRIRKRPPRLPRPRPRPRRPPRP

Return:
0.051
0.308
0.227
0.544

Give shrunken log2 fold change for all sequences that follow.
1. RRIRHRPPRLPRPRPRPAGVPRP
2. RRIRNRPPRLPRPRPRPSVAPRP
3. RRIRQRPPRLPRPRPRPPTPPRP
4. RRIRRRPPRLPRPRPRPILYPRP
5. RRIRQRPPRLPRPRPRPRHEPRP

Return:
[0.141, -0.0478, 0.538, 0.143, -0.131]

====

Exercise: state measured shrunken log2 fold change for each of the sequences provided.
Test system: Escherichia coli TOP10
procedureDetails: shrunken log2 fold change of peptide-encoding DNA abundance (4.5 h post-induction vs induction); higher = less antimicrobial activity (less host growth inhibition)
conditionContext: time post-induction: 4.5 h; library: site-saturation at positions 5, 18, 19, 20
One number for each entry.

residues	shrunken log2 fold change
RRIRTRPPRLPRPRPRPPNDPRP	-0.133
RRIRRRPPRLPRPRPRPCAYPRP	0.0425
RRIRMRPPRLPRPRPRPETTPRP	3.65
RRIRVRPPRLPRPRPRPIFLPRP	-0.157
RRIRSRPPRLPRPRPRPALWPRP	0.825

Dear colleague, could you please provide shrunken log2 fold change for the sequences listed below?
1. RRIRTRPPRLPRPRPRPGIKPRP
2. RRIRGRPPRLPRPRPRPAPQPRP
3. RRIRPRPPRLPRPRPRPTSEPRP
4. RRIRYRPPRLPRPRPRPMDLPRP
5. RRIRDRPPRLPRPRPRPVYGPRP

Return:
-0.162
1.15
0.0181
-0.0912
-0.322

====

Test system: Escherichia coli TOP10;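 note: peptides expressed intracellularly from a pBAD plasmid library in pooled LB shake-flask culture, induced with 0.3% L-arabinose, DNA abundance read by NGS, three biological replicates, DESeq2 with apeglm shrinkage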
procedureDetails: shrunken log2 fold change of peptide-encoding DNA abundance (4.5 h post-induction vs induction); higher = less antimicrobial activity (less host growth inhibition)
conditionContext: time post-induction: 4.5 h; library: site-saturation at positions 5, 18, 19, 20
Label scheme for shrunken log2 fold change: lower than -0.06 is 0 (no), -0.06 and above is 1 (yes).

Illustrative cases are given below, each with its answer.
residues	system	discreteLabel
RRIRCRPPRLPRPRPRPQIWPRP	Escherichia coli TOP10	0 (no)
RRIRYRPPRLPRPRPRPVMWPRP	Escherichia coli TOP10	1 (yes)
RRIRERPPRLPRPRPRPRQYPRP	Escherichia coli TOP10	0 (no)
RRIRFRPPRLPRPRPRPCLGPRP	Escherichia coli TOP10	0 (no)
RRIRSRPPRLPRPRPRPVCEPRP	Escherichia coli TOP10	1 (yes)
RRIRTRPPRLPRPRPRPDFPPRP	Escherichia coli TOP10	0 (no)

Enquiry: Does the sequence RRIRIRPPRLPRPRPRPCYNPRP have recorded shrunken log2 fold change that is -0.06 or more?
Return: 0 (no)

Enquiry: Say whether RRIRLRPPRLPRPRPRPHNHPRP shows shrunken log2 fold change of -0.06 or more.
Return: 0 (no)

Enquiry: I'd appreciate it if you could say whether RRIRNRPPRLPRPRPRPERSPRP has shrunken log2 fold change at least equal to -0.06.
Return: 1 (yes)

Enquiry: Confirm if shrunken log2 fold change reported for the sequence RRIRCRPPRLPRPRPRPYRVPRP is -0.06 or above.
Return: 1 (yes)

Enquiry: hey, is shrunken log2 fold change for this one >= -0.06? RRIRARPPRLPRPRPRPLYAPRP
Return: 1 (yes)

Enquiry: Check if shrunken log2 fold change >= -0.06 (inclusive). Item: RRIRTRPPRLPRPRPRPPTRPRP
Return: 1 (yes)
